All figures here come from patent US10669272B2.

- ASSAYED_TARGET: human DGKζ (Homo sapiens)
- Construct: TVMV protease cleavage site (C); Hexa-His (C); made in house; host or cells: Sf9 insect cells (baculovirus, Bac-to-Bac)
- Sequence (Q13574 with tags, fused parts or gaps isoform Q13574-4): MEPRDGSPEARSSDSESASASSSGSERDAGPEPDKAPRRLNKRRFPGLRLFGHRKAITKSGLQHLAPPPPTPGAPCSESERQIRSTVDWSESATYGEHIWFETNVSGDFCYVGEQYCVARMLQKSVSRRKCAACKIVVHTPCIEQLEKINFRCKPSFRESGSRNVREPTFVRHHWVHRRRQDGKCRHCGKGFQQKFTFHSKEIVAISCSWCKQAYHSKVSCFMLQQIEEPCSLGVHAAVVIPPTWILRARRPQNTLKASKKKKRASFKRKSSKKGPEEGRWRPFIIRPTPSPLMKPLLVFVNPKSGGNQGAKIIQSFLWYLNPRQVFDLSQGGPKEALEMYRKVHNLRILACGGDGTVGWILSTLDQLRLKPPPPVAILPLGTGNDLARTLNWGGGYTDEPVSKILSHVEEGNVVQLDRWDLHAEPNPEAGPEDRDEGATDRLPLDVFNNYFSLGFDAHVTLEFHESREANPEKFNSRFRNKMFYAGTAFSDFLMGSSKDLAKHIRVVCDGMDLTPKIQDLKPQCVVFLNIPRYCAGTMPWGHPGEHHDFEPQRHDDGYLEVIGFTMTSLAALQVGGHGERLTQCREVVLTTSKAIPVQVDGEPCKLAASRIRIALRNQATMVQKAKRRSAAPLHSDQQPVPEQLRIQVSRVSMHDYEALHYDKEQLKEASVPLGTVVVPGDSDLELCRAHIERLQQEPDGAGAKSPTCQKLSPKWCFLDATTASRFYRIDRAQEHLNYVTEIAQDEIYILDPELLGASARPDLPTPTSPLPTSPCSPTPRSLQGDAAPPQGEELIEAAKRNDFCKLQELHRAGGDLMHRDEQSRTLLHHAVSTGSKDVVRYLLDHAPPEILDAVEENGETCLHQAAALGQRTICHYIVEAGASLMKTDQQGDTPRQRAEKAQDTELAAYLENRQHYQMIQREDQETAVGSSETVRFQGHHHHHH
- PROTOCOL_TEXT: DGKζ LIPGLO assay (extruded liposome substrate), in vitro DGK inhibition
- Type: biochemical
- CONDITION_CONTEXT: liposome (LIPGLO) assay; read-out: DGKz LIPGLO IC50
OUTCOME_MEASURE: IC50 (nM)

Solved entries:
Cc1nc2c(C(C)N3C[C@H](C)N(c4cc(=O)n(C)c5ccc(C#N)nc45)C[C@H]3C)cccc2o1 (single isomer, unassigned) [Example 1261] ... 1100
CC(c1ccc2c(c1)OCCO2)N1C[C@H](C)N(c2cc(=O)n(C)c3ccc(C#N)nc23)C[C@H]1C (single isomer, unassigned) [Example 1259] ... 670
Cc1ccc(C(c2cc(C)ccn2)N2C[C@H](C)N(c3cc(=O)n(C)c4ccc(C#N)nc34)C[C@H]2C)cc1 (single isomer, unassigned) [Example 461] ... 3600
C[C@@H]1CN(c2cc(=O)n(C)c3ccc(C#N)nc23)[C@@H](C)CN1C(c1ccc(F)cc1)C1CCCCO1 (single isomer, unassigned) [Example 358] ... 21000
Cn1c(=O)c(C#N)c(N2CCN(C(c3ccc(F)cc3)c3ccc(F)cc3)C(C(N)=O)C2)c2nc(C#N)ccc21 (single isomer, unassigned) [Example 58] ... 180000

P: COC(=O)NC[C@@H]1CN(c2cc(=O)n(C)c3ccc(C#N)nc23)[C@@H](C)CN1C(c1ccc(F)cc1)c1ccc(F)cc1
Q: CC1C(C)N(C(c2ccc(F)cc2)c2ccc(F)cc2)CCN1c1cc(=O)n(C)c2ccc(C#N)nc12 (single isomer, unassigned) [Example 123]
QUERY: Kindly compare P with Q and tell me which has the lower IC50 figure. Reply with the label of the item you choose.
RESULT: P
